Where do these numbers come from? They come from patent US9139523B2.

Target: Alpha1A (Homo sapiens, UniProt P35348)
Construct: expressed in transfected cells; host or cells: CHO (membrane fraction)
Sequence (P35348 whole entry): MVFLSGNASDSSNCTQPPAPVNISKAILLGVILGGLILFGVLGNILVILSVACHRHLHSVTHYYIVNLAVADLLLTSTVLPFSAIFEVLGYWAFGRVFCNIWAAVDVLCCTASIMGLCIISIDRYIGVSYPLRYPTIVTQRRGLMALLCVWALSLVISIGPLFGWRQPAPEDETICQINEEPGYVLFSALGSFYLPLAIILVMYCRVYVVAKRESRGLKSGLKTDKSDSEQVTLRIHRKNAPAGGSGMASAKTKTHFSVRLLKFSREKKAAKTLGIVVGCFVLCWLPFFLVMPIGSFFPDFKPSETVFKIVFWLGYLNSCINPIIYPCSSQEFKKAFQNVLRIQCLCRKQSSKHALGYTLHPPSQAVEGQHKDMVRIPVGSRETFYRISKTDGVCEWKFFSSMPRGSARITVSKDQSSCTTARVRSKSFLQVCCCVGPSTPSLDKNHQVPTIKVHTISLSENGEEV
Assay: Competitive radioligand binding, Alpha1A
Conditions: CHO membranes, 3H-prazosin 0.25 nM; read-out: pIC50 Alpha1A (converted)
Experimental: Competitive radioligand binding assays were used to determine the affinity of the test compounds for a particular receptor. […] Cell lines were established that stably express the human variant of the receptor under investigation after transfection with the appropriate cDNA (Table 1). […] Optimal membrane dilutions for binding studies were determined and aliquots were stored at −70° C. until use. […]
Field: IC50. Provide a value for each of the molecules that follow.

Q: Please look up its IC50: COc1cc(N)c(Cl)cc1C(=O)N[C@@H]1CCN(CCCOc2ccc(F)cc2)C[C@H]1F (single isomer, unassigned) [(+)-7]
Result: 525 nM

Q: Query: IC50; subject: COc1cc(N)c(Cl)cc1C(=O)NC1CCN(CCCOc2ccc(F)cc2)CC1(F)F (racemic) [(±)-17]
Result: > 10000 nM

Q: Find the recorded IC50 belonging to COc1cc(N)c(Cl)cc1C(=O)N[C@H]1CCN(CCCOc2ccc(F)cc2)C[C@H]1F (single isomer, unassigned) [(+)-12] and report it.
Result: 550 nM

---

test: Monocrotaline-induced pulmonary arterial hypertension in the rat; assay type: in vivo; conditions: male, Sprague Dawley, in vivo, po, 10 mg/kg; rat, 10 mg p.o. once daily, 2 hours post-dosing at day 21; read-out: mean plasma concentration
endpoint-name: concentration at 2 h

Q: Query: concentration at 2 h; subject: COc1cc(N)c(Cl)cc1C(=O)NC1CCN(CCCOc2ccc(F)cc2)CC1(F)F (single isomer, unassigned) [Compound (−)-17]
Result: ~80 ng/mL

---

target: 5HT2B (Homo sapiens, UniProt P41595); assay: Competitive radioligand binding, 5HT2B; set-up: expressed in transfected cells; host or cells: CHO (membrane fraction); conditions: CHO membranes, 3H-5-HT 4 nM; read-out: pIC50 5HT2B (converted)
Sequence (P41595 whole entry): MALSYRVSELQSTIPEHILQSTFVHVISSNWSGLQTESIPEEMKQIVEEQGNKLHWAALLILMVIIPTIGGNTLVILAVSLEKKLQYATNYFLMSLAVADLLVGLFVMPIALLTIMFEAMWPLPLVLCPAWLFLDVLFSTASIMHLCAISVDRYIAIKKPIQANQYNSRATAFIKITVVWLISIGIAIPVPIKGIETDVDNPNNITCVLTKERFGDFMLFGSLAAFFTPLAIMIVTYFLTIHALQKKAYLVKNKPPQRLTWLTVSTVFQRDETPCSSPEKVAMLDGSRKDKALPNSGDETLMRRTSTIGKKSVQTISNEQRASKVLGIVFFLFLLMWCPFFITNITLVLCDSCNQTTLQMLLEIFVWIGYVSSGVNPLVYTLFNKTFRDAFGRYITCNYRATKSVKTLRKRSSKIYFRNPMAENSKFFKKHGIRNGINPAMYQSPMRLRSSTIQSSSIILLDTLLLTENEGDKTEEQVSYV
Checkbox rule: IC50 lower than 0.05 µM = fulfilled; IC50 not lower than 0.05 µM = not fulfilled.

Q: # check: IC50 < 0.05 µM for COc1cc(N)c(Cl)cc1C(=O)N[C@@H]1CCN(CCCOc2ccc(F)cc2)C[C@H]1F (single isomer, unassigned) [(+)-7]
Result: not fulfilled

Q: is_below(IC50, 0.05 µM) for COc1cc(N)c(Cl)cc1C(=O)NC1CCN(CCCOc2ccc(F)cc2)CC1(F)F (racemic) [(±)-17] ?
Result: fulfilled

Q: Please indicate whether the reported IC50 of COc1cc(N)c(Cl)cc1C(=O)N[C@@H]1CCN(CCCOc2ccc(F)cc2)C[C@H]1F (single isomer, unassigned) [(−)-7] is strictly below 0.05 µM.
Result: not fulfilled

Q: Field: below-cutoff. Rule: recorded IC50 strictly less than 0.05 µM. Subject: COc1cc(N)c(Cl)cc1C(=O)NC1CCN(CCCOc2ccc(F)cc2)CC1(F)F (single isomer, unassigned) [Compound (−)-17]
Result: fulfilled

---

assay: Pharmacokinetic evaluation in the rat; assay type: in vivo; settings: plasma, iv; male Sprague Dawley rat, i.v. 2.5 mg/kg (n=1)
endpoint-name: clearance (mL/min/kg)
Provide the reading as a plain figure in mL/min/kg.

Q: Which clearance reading was recorded for the compound COc1cc(N)c(Cl)cc1C(=O)NC1CCN(CCCOc2ccc(F)cc2)CC1(F)F (single isomer, unassigned) [Compound (−)-17] ?
Result: 46

---

Kindly state % block of the hERG channel for each of the entries shown.
target: hERG potassium channel (Homo sapiens, UniProt Q12809); construct: expressed in transfected cells; host or cells: HEK293; test: hERG-transfected HEK293 cells using a Patch Express apparatus; assay type: cell-based; conditions: 300 nM; bracketed value in cell = % block by vehicle
Sequence (Q12809 whole entry): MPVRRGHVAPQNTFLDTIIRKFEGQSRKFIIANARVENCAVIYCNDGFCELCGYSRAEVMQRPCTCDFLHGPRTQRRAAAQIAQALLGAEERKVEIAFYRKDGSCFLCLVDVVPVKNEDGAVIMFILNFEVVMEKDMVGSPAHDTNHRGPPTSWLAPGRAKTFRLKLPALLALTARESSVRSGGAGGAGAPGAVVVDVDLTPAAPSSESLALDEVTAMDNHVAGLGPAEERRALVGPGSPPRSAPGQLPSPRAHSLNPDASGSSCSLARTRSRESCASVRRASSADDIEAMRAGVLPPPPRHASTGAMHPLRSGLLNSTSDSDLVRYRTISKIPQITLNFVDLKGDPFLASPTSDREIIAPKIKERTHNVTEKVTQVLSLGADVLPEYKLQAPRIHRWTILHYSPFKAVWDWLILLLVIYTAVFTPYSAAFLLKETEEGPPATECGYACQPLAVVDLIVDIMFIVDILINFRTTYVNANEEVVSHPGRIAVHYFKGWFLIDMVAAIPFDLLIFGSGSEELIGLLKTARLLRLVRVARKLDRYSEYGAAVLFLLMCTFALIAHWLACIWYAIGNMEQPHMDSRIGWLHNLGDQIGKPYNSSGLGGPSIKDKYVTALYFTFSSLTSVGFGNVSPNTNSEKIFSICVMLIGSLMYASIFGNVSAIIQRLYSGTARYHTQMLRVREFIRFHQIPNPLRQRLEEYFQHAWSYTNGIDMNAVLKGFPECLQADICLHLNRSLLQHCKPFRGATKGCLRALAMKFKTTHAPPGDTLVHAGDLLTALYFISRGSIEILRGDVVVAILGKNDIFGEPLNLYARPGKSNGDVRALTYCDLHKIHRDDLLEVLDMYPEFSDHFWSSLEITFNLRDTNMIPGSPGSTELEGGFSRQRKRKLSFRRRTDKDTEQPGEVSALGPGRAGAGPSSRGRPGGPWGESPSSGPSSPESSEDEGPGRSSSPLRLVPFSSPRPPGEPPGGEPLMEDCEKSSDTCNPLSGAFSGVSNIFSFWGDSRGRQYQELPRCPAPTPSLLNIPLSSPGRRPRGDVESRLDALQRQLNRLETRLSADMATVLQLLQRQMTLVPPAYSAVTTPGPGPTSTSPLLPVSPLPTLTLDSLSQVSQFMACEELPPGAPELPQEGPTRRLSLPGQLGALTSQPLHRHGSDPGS

Q: Which % block of the hERG channel value belongs to COc1cc(N)c(Cl)cc1C(=O)NC1CCN(CCCOc2ccc(F)cc2)CC1(F)F (single isomer, unassigned; (+)) [(+)-17] ?
Result: 21 (10) %

Q: What measured % block of the hERG channel goes with COc1cc(N)c(Cl)cc1C(=O)N[C@H]1CCN(CCCOc2ccc(F)cc2)C[C@H]1F (racemic) [(±)-12] ?
Result: 73 (15) %

Q: % block of the hERG channel lookup needed for COc1cc(N)c(Cl)cc1C(=O)NC1CCN(CCCOc2ccc(F)cc2)CC1(F)F (racemic) [(±)-17] , thanks.
Result: 17 (15) %

Q: Data request, read-out % block of the hERG channel, for COc1cc(N)c(Cl)cc1C(=O)N[C@@H]1CCN(CCCOc2ccc(F)cc2)C[C@H]1F (racemic) [(±)-7]
Result: 62 (15) %

Q: What does the record list as % block of the hERG channel for COc1cc(N)c(Cl)cc1C(=O)NC1CCN(CCCOc2ccc(F)cc2)CC1(F)F (single isomer, unassigned) [Compound (−)-17] ?
Result: 11 (10) %

---

experiment: Cardiovascular effects in the anaesthetized guinea-pig; assay type: in vivo; conditions: female, plasma, iv; guinea pig, end of 5-min i.v. infusion, dose 2.5 mg/kg (increasing doses, 15-min intervals); read-out: Median plasma level (Cmax)
endpoint-name: Cmax
Please provide the amount together with its unit, number first.

Q: GET /values?readout=Cmax&item= COc1cc(N)c(Cl)cc1C(=O)NC1CCN(CCCOc2ccc(F)cc2)CC1(F)F (single isomer, unassigned) [Compound (−)-17]
Result: 6320 ng/mL

---

assay: Pharmacokinetic evaluation in the mouse; type: in vivo; conditions: plasma, iv; male CD1 mouse, i.v. 2.5 mg/kg
endpoint-name: clearance
A complete answer gives the number followed by the unit.

Q: clearance lookup needed for COc1cc(N)c(Cl)cc1C(=O)NC1CCN(CCCOc2ccc(F)cc2)CC1(F)F (single isomer, unassigned) [Compound (−)-17] , thanks.
Result: 20 mL/min/kg

---

Kindly state IC50 for each of the entries shown.
Target: 5HT2B (Homo sapiens, UniProt P41595)
Assay: Competitive radioligand binding, 5HT2B
Parameters: expressed in transfected cells; host or cells: CHO (membrane fraction)
Conditions: CHO membranes, 3H-5-HT 4 nM; read-out: pIC50 5HT2B (converted)
Procedure: Competitive radioligand binding assays were used to determine the affinity of the test compounds for a particular receptor. […] Cell lines were established that stably express the human variant of the receptor under investigation after transfection with the appropriate cDNA (Table 1). […] Optimal membrane dilutions for binding studies were determined and aliquots were stored at −70° C. until use. […]
// units = nM; emit number, no label

Q: Form field: reported IC50 of COc1cc(N)c(Cl)cc1C(=O)N[C@H]1CCN(CCCOc2ccc(F)cc2)C[C@H]1F (racemic) [(±)-12]
Result: 66.1

Q: Look up IC50 for this molecule: COc1cc(N)c(Cl)cc1C(=O)N[C@@H]1CCN(CCCOc2ccc(F)cc2)C[C@H]1F (racemic) [(±)-7]
Result: 107

Q: IC50 for COc1cc(N)c(Cl)cc1C(=O)N[C@H]1CCN(CCCOc2ccc(F)cc2)C[C@H]1F (single isomer, unassigned) [(−)-12] ?
Result: 72.4

Q: So what's the measured IC50 for this one? COc1cc(N)c(Cl)cc1C(=O)N[C@H]1CCN(CCCOc2ccc(F)cc2)C[C@H]1F (single isomer, unassigned) [(+)-12]
Result: 148

---

molecular target: hERG potassium channel (Homo sapiens); construct: expressed in transfected cells; host or cells: HEK293; test: hERG-transfected HEK293 cells using a Patch Express apparatus; assay type: cell-based; settings: 3000 nM; bracketed value in cell = % block by vehicle
endpoint-name: % block of the hERG channel

Q: I am curious: what % block of the hERG channel value has been reported for COc1cc(N)c(Cl)cc1C(=O)NC1CCN(CCCOc2ccc(F)cc2)CC1(F)F (single isomer, unassigned; (+)) [(+)-17] ?
Result: 52 (11) %

Q: I am curious: what % block of the hERG channel value has been reported for COc1cc(N)c(Cl)cc1C(=O)NC1CCN(CCCOc2ccc(F)cc2)CC1(F)F (single isomer, unassigned) [Compound (−)-17] ?
Result: 47 (11) %

Q: % block of the hERG channel for COc1cc(N)c(Cl)cc1C(=O)NC1CCN(CCCOc2ccc(F)cc2)CC1(F)F (racemic) [(±)-17] ?
Result: 58 (21) %

Q: GET /values?readout=% block of the hERG channel&item= COc1cc(N)c(Cl)cc1C(=O)N[C@H]1CCN(CCCOc2ccc(F)cc2)C[C@H]1F (racemic) [(±)-12]
Result: 96 (21) %

Q: Entry under review: COc1cc(N)c(Cl)cc1C(=O)N[C@@H]1CCN(CCCOc2ccc(F)cc2)C[C@H]1F (racemic) [(±)-7] . Reported % block of the hERG channel?
Result: 94 (21) %

---

molecular target: 5HT2B (Homo sapiens, UniProt P41595); assay: 5-HT2B antagonism, FLIPR intracellular calcium in transfected CHO-K1 cells; format: cell-based; parameters: expressed in transfected cells; host or cells: CHO-K1 (ECACC); details: CHO-K1 cells, response to 0.1 nM serotonin, Fluo-3 FLIPR
Would you kindly list IC50 for each of these molecules?
Return type: number; implicit unit nM.

Q: What does the data say about its IC50? Entry: COc1cc(N)c(Cl)cc1C(=O)NC1CCN(CCCOc2ccc(F)cc2)CC1(F)F (single isomer, unassigned; (+)) [(+)-17]
Result: 33

Q: IC50 for COc1cc(N)c(Cl)cc1C(=O)N[C@@H]1CCN(CCCOc2ccc(F)cc2)C[C@H]1F (racemic) [(±)-7] ?
Result: 60

Q: What value of measured IC50 is listed for COc1cc(N)c(Cl)cc1C(=O)NC1CCN(CCCOc2ccc(F)cc2)CC1(F)F (single isomer, unassigned) [Compound (−)-17] ?
Result: 1.6

Q: Please look up its IC50: COc1cc(N)c(Cl)cc1C(=O)N[C@H]1CCN(CCCOc2ccc(F)cc2)C[C@H]1F (racemic) [(±)-12]
Result: 12
